- Assay target: canine IL-31 (Canine_IL31) (canine)
- Sequence (chain, as listed by the source limits assumed, form in doubt): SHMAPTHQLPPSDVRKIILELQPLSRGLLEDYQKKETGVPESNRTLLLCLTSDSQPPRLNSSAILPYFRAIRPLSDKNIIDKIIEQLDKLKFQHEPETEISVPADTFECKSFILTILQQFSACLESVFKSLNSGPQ
- Method notes: SPR (Biacore), immobilised IL-31, 1:1 fit
pKd: −log10 of the molar value.
Reported pKd values follow for various binders
Observable: pKd

1. Feline 15H05 VH2 mouse VL (antibody, V domains shown) VH: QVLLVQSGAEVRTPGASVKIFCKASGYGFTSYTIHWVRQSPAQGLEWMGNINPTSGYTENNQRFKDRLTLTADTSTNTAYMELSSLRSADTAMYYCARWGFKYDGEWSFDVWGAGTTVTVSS VL: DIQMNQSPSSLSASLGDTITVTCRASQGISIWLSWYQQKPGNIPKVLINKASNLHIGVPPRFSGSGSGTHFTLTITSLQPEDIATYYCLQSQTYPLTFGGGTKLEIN    8.65
2. Feline 15H05 1.1 FW1 (antibody, V domains shown) VH: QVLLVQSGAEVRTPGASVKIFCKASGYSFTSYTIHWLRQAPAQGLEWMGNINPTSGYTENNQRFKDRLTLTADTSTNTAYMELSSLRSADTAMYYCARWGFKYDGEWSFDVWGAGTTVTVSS VL: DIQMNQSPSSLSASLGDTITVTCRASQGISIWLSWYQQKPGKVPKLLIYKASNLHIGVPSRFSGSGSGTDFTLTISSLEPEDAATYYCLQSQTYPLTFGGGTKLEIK    6.09
3. mouse anti IL-31 antibody 15H05 (antibody, V domains shown) VH: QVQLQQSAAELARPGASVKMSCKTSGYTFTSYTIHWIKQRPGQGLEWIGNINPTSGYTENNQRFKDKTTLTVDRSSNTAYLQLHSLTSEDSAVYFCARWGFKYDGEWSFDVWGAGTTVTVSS VL: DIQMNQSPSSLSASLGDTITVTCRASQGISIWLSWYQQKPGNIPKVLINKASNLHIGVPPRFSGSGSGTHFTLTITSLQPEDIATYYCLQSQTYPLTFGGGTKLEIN    11.31
